Please provide measured pIC50 for the entries that follow.
- test target: human TRPA1 channel (Homo sapiens (Human))
- Sequence (O75762 whole entry): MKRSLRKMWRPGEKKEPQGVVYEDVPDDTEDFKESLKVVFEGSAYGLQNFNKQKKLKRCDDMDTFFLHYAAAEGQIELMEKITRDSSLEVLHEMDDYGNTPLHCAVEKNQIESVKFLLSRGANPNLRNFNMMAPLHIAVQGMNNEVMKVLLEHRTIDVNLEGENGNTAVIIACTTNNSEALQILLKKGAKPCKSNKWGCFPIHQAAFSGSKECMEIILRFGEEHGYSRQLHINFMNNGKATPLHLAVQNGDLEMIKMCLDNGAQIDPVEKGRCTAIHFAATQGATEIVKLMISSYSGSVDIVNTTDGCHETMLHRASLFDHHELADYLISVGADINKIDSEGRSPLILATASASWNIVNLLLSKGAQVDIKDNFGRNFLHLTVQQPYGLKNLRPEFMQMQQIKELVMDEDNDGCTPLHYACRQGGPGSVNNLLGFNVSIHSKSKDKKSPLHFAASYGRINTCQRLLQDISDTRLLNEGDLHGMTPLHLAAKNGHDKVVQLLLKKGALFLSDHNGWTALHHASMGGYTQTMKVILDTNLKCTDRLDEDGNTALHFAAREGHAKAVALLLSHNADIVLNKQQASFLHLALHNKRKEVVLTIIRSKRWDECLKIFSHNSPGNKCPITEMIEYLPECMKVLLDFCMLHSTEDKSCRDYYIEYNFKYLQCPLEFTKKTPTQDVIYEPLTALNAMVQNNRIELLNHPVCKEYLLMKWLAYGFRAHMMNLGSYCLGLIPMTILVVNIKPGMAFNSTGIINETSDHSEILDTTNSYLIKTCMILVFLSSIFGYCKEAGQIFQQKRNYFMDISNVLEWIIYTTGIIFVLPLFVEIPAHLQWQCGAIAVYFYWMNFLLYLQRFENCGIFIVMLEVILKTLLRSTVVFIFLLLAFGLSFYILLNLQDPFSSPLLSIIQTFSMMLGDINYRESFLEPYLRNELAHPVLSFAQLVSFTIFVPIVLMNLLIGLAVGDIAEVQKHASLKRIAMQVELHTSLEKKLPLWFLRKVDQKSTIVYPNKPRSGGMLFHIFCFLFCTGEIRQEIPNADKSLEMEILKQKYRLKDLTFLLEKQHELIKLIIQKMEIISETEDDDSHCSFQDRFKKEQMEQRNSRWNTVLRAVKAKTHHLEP
- test summary: hTRPA1 CHO Ca2+ FLIPR Tetra assay, block of cinnamaldehyde induced calcium influx
- Assay type: cell-based
- stated conditions: read-out: hTRPA1 IC50 (90 min); CHO cells expressing TRPA1; compounds incubated 90 minutes at room temperature before cinnamaldehyde agonist; Hill coefficient fixed to 1.5
Numbers only, as −log10 of the molar value.

Worked set:
Cn1cnc2ncn(Cc3nc([C@H]4C[C@H](Cc5cccc(Cl)c5)C4)no3)c(=O)c21 [Example Compound 257]: 7.72
O=c1c2cccnc2ncn1Cc1nc([C@H]2[C@@H]3CN(c4cc(Cl)ccn4)C[C@@H]32)no1 [Example Compound 183]: 7.28
Cc1cncc2ncn(Cc3nc([C@H]4C[C@](O)(c5ccc6ccccc6c5)C4)no3)c(=O)c12 [Example Compound 232]: 8.32
Cn1cnc2ncn(Cc3nc([C@@H]4[C@H]5C=C(c6ccc7scnc7c6)C[C@H]54)no3)c(=O)c21 [Example Compound 113]: 7.47
O=c1c2cccnc2ncn1Cc1nc([C@@H]2[C@H]3C=C(c4cc(Cl)ccn4)C[C@H]32)no1 [Example Compound 162]: 7.06
Cn1cnc2ncn(Cc3nc([C@H]4[C@@H]5CN(c6ccc(Cl)c(F)c6)C[C@@H]54)no3)c(=O)c21 [Example Compound 229]: 8.00
Cn1cnc2ncn(Cc3nc([C@@H]4[C@H]5C=C(c6ccc(C(F)F)cc6)C[C@H]54)no3)c(=O)c21 [Example Compound 281]: 7.46
Cn1cnc2ncn(Cc3nc([C@@H]4[C@H]5C=C(c6ccc(F)cn6)C[C@H]54)no3)c(=O)c21 [Example Compound 110]: 7.57

Answer for every listed entry: what is its pIC50? The entries follow.
1. Cn1cnc2ncn(Cc3nc([C@H]4[C@@H]5C=C(c6ccc(F)cc6F)C[C@@H]54)no3)c(=O)c21 [Example Compound 269]
2. Cn1cnc2ncn(Cc3nc([C@H]4[C@@H]5CN(c6ccccc6C#N)C[C@@H]54)no3)c(=O)c21 [Example Compound 98]
3. Cn1cnc2ncn(Cc3nc([C@H]4[C@@H]5CN(c6ccccn6)C[C@@H]54)no3)c(=O)c21 [Example Compound 228]
4. Cn1cnc2ncn(Cc3nc([C@H]4[C@@H]5CN(c6ccnc(Cl)c6)C[C@@H]54)no3)c(=O)c21 [Example Compound 146]
5. Cc1ccnc2ncn(Cc3nc([C@H]4C[C@](F)(c5cccc(F)c5)C4)no3)c(=O)c12 [Example Compound 143]
6. Cn1cnc2ncn(Cc3nc([C@H]4[C@@H]5CN(c6cc(Cl)cc(C#N)c6)C[C@@H]54)no3)c(=O)c21 [Example Compound 193]
7. COCCNc1nc2ncn(Cc3nc([C@@H]4[C@H]5C=C(c6ccccc6)C[C@H]54)no3)c(=O)c2n1C [Example Compound 260]
8. Cn1ncc2ncn(Cc3nc([C@H]4[C@@H]5CN(c6cc(Cl)ccn6)C[C@@H]54)no3)c(=O)c21 [Example Compound 155]

RESULT:
1. 8.34
2. 7.00
3. 6.89
4. 7.00
5. 7.55
6. 7.49
7. 7.46
8. 7.14

----------
- test target: UniProt O75762
- test summary: hTRPA1 CHO Ca2+ FLIPR Tetra assay, block of cinnamaldehyde induced calcium influx
- Assay type: cell-based
- stated conditions: read-out: hTRPA1 IC50 (10 min); CHO cells expressing TRPA1; compounds incubated 10 minutes at room temperature before cinnamaldehyde agonist; Hill coefficient fixed to 1.5
Provide the recorded IC50 for the entries that follow.
One number for each entry, in nM.

Would you please look over these solved cases?
Cn1cnc2ncn(Cc3nc([C@H]4[C@@H]5CN(c6ncccc6F)C[C@@H]54)no3)c(=O)c21: 143
O=c1c2cccnc2cnn1Cc1nc([C@H]2C[C@](F)(c3ccc(Cl)cc3)C2)no1: 98.9
O=c1c2ccc(Cl)nc2ncn1Cc1nc([C@H]2[C@@H]3CN(c4cccc(F)c4)C[C@@H]32)no1: 58.3

QUERY: Recorded IC50 of `Cn1cnc2ncn(Cc3nc([C@@H]4[C@H]5C=C(c6cccc(C(F)F)c6)C[C@H]54)no3)c(=O)c21` , please.
RESULT: 49.5

Where these numbers come from: patent US10711004B2
